- METHOD DESCRIPTION: A2780 ovarian cancer cell cytotoxicity, dose response, cytotoxicity control, plate reader, dry powder samples (AID 743046)
- RUN CONDITIONS: series mostly up to 35 µM
Measured potencies and affinities stand elsewhere. Activity calls are given as the source filed them. How the calls were made is not given here.
MEASURED ATTRIBUTE: activity change, negative = cytotoxicity

[[record]]
query_smiles = "C[C@@H]1CN([C@@H](C)CO)C(=O)c2cc(NC(=O)c3ccccc3)ccc2O[C@@H](C)CCCCO[C@H]1CN(C)Cc1ccc(C(F)(F)F)cc1"
endpoint_value = "inactive"

[[record]]
query_smiles = "C[C@@H]1CCCCO[C@H](CN(C)S(=O)(=O)c2ccc(Cl)cc2)[C@@H](C)CN([C@@H](C)CO)C(=O)c2cc(NC(=O)Nc3ccc(C(F)(F)F)cc3)ccc2O1"
endpoint_value = "inactive"

[[record]]
query_smiles = "C[C@@H]1CCCCO[C@H](CN(C)Cc2ccc3c(c2)OCO3)[C@@H](C)CN([C@@H](C)CO)C(=O)c2cc(NS(=O)(=O)c3ccc(Cl)cc3)ccc2O1"
endpoint_value = "inactive"

